Tested on: MRSA (ATCC 33592)
METHOD SUMMARY: MIC, broth microdilution
Assay type: cell-based, methicillin-resistant Staphylococcus aureus
PARTICULARS: Staphylococcus aureus; read-out: MIC MRSA (ATCC 33592)
OBSERVABLE: MIC (µg/mL)

// known answers, use as guide
[ask] // query MIC value for entry "NS(=O)(=O)Nc1ccc(-n2nc(C(F)(F)F)cc2-c2ccc(-c3ccccc3)cc2)cc1"
[reply] 1

[ask] Now try "Cc1ccc(-c2ccc(-c3cc(C(F)(F)F)nn3-c3ccc(NS(N)(=O)=O)cc3)cc2)cc1" .
[reply] 1

I: NS(=O)(=O)Nc1ccc(-n2nc(C(F)(F)F)cc2-c2ccc(-c3ccc(Br)cc3)cc2)cc1
II: NC(=O)c1ccc(-n2nc(C(F)(F)F)cc2-c2c3ccccc3cc3ccccc23)cc1
[ask] Pick one: I or II . Which one has the lower reported MIC? Give the label of your selection.
[reply] I

a: Cc1ccc(-c2cc(C(F)(F)F)nn2-c2ccc(NS(N)(=O)=O)cc2)cc1
b: NS(=O)(=O)Nc1ccc(-n2nc(C(F)(F)F)cc2-c2ccc3cc4ccccc4cc3c2)cc1
[ask] Lower value of MIC belongs to which: a or b ? // output: label of the selected item
[reply] b
